Ref: patent US20260103465A1

system under test: GSK3a (GST-full length GSK3a) (Homo sapiens)
Construct: GST-full length GSK3a [SignalChem G08-10G]; purchased SignalChem G08-10G
Sequence (P49840 whole entry): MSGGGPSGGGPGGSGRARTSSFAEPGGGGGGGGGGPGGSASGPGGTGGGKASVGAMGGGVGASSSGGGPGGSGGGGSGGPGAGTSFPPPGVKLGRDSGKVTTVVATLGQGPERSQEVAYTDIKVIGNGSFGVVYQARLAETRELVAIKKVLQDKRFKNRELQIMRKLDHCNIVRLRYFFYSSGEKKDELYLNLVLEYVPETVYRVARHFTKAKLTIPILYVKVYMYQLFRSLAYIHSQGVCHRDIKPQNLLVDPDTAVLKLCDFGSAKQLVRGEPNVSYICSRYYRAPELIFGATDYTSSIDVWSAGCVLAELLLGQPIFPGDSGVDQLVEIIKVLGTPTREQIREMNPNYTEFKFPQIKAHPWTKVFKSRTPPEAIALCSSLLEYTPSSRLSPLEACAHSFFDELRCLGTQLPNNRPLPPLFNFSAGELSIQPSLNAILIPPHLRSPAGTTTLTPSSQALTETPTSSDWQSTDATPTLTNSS
procedure text: GSK3a TR-FRET kinase inhibition assay
Type: biochemical
condition label: 4 μM ATP; read-out: GSK3α TR-FRET 4 μM ATP GMean IC50

{"columns": ["molecule", "system under test", "IC50"],
 "data": [
  ["CCC1(c2cccc(-c3cc(C)nn3C)c2)C2=C(CC(C)(C)CC2=O)Nc2ncc(F)cc21 (single isomer, unassigned) [Compound 1033B]", "GSK3a (GST-full length GSK3a) (Homo sapiens)", "≤ 100 nM"],
  ["CCC1(c2cccc(-c3ccnc(C)c3)c2)C2=C(CC(C)(C)CC2=O)Nc2ncccc21 (single isomer, unassigned) [Compound 1021A]", "GSK3a (GST-full length GSK3a) (Homo sapiens)", "> 5000 nM"],
  ["CCC1(c2cccc(-c3ccnc4c3CCCC4)c2)C2=C(CC(C)(C)CC2=O)Nc2ncc(F)cc21 (single isomer, unassigned) [Compound 165A]", "GSK3a (GST-full length GSK3a) (Homo sapiens)", "1000 to 5000 nM"]
]}
